These data points were gathered from PubChem BioAssay.

experiment: differential killing of epithelial or mesenchymal cells, primary screen, imaging, PC-3E GFP, TEM4-18 mCherry, co-culture (AID 1345086); conditions: imaging cell counts, measured here: mesenchymal TEM4-18 mCherry cell survival, at 1 µM;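 also: cells exposed to compound for 72 h before imaging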

| compound | normalised cell number |
| --- | --- |
| CC(=O)O[C@@H]1CC2C(C)(C)C(=O)C=C[C@]2(C)C2CC[C@@]3(C)[C@H](c4ccoc4)OC(=O)[C@H]4O[C@]43[C@@]21C (stereo partly drawn) | 0.99 |
| COc1cc([C@@]2(C)[C@@H]3[C@@H](C)CCC[C@@H]3C=C[C@@H]2C)oc(=O)c1C=O | 0.98 |
| CC1(C)S[C@@H]2[C@H](NC(=O)C(N)c3ccc(O)cc3)C(=O)N2[C@H]1C(=O)O (stereo partly drawn) | 1.02 |
